// data source = ChEMBL document CHEMBL3407444

TARGET_UNDER_TEST: Nitric oxide synthase 1 (Rattus norvegicus)
Sequence (P29476 whole entry): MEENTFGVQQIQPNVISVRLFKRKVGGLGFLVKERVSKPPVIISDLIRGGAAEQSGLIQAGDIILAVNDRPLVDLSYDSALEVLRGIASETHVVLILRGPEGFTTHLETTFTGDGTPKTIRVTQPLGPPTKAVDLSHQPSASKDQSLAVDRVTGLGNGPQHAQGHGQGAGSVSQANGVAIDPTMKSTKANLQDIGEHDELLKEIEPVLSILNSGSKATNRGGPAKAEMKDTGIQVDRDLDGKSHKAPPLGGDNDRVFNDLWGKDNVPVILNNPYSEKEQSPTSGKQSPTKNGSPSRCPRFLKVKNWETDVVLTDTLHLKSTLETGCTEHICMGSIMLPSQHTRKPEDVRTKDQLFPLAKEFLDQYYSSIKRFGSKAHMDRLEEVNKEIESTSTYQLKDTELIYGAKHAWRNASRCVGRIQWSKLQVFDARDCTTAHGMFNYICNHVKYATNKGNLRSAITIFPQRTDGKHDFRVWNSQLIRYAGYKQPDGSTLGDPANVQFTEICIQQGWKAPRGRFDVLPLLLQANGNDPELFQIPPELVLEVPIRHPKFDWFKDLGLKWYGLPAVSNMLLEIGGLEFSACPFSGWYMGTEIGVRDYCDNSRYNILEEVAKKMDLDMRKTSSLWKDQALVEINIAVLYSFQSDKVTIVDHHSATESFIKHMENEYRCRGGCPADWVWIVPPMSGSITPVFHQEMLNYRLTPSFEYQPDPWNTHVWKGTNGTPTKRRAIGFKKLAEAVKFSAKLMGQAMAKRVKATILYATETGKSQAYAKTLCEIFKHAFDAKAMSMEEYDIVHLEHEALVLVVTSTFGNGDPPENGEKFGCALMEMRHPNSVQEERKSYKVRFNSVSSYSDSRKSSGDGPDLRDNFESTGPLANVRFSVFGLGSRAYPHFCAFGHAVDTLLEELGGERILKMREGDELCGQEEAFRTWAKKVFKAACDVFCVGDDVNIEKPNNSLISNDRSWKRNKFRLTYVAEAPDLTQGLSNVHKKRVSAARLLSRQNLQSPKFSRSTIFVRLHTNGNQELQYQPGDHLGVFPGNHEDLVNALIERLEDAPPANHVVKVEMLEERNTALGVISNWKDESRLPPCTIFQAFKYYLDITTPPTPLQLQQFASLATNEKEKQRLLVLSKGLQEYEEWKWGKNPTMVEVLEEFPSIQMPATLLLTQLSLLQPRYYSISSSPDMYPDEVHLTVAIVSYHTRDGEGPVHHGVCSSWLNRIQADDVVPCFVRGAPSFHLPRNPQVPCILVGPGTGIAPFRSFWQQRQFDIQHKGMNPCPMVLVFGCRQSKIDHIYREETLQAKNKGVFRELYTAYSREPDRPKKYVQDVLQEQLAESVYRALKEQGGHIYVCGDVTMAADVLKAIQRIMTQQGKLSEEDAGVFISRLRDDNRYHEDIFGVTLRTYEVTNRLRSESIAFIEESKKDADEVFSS
ASSAY_INFO: Binding affinity to recombinant rat neuronal NOS overexpressed in Escherichia coli assessed as production of nitric oxide from L-arginine measured for 5 mins by oxyhemoglobin NO capture assay
# note: exactly 0.1 µM is not below, so it is label 0; use label 1 for Ki strictly under it

* Cc1cn(-c2nccc(CCNCCCc3cccc(F)c3)n2)cn1 | label 0
* Fc1cccc(CCCNCCc2ccnc(-n3cncn3)n2)c1 | label 0
* Fc1cccc(C[C@@H]2C[C@H]2NCCc2ccnc(-n3ccnc3)n2)c1 | label 1
* Fc1cccc(C[C@H]2C[C@@H]2NCCc2ccnc(-n3ccnc3)n2)c1 | label 0
* Cc1nccn1-c1nccc(CCNCCCc2cccc(F)c2)n1 | label 0
* Cc1cncn1-c1nccc(CCNCCCc2cccc(F)c2)n1 | label 1

* * *

Reported Ratio Ki by item:
ASSAY_INFO: Selectivity ratio of Ki for recombinant mouse macrophage inducible NOS to Ki for recombinant rat neuronal NOS
ENDPOINT_NAME: Ratio Ki

• Fc1cccc(CCNCCNc2ccnc(-n3ccnc3)n2)c1 = 17
• Fc1cccc(C2CC2CNCCc2ccnc(-n3ccnc3)n2)c1 (centres undefined) = 34
• Clc1cccc(CCCNCCc2ccnc(-n3ccnc3)n2)c1 = 28
• Fc1cccc(CCCNCc2ccnc(-n3ccnc3)n2)c1 = 4

* * *

TARGET_UNDER_TEST: Alpha-2C adrenergic receptor (Homo sapiens, UniProt P18825)
Sequence (P18825 whole entry): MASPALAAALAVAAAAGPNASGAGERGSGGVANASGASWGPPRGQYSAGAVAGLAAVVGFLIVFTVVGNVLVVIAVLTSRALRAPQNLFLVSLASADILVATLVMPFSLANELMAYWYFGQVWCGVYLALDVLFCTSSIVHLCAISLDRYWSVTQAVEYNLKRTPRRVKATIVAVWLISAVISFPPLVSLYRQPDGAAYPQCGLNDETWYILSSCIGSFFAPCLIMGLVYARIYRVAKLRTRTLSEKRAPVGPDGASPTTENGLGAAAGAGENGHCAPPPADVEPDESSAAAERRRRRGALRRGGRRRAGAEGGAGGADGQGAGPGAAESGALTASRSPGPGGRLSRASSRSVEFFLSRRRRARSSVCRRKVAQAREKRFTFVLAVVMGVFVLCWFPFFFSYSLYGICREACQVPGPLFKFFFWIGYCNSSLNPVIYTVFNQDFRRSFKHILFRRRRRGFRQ
ASSAY_INFO: Binding affinity to human adrenergic alpha-2C receptor after 90 mins by radioligand displacement assay
pKi: −log10 of the molar value.
ENDPOINT_NAME: pKi

* Cl.Fc1cccc(CCCNCCc2ccnc(-n3ccnc3)n2)c1 | 6.70

* * *

TARGET_UNDER_TEST: CYP2C19 (Homo sapiens, UniProt P33261)
Sequence (P33261 whole entry): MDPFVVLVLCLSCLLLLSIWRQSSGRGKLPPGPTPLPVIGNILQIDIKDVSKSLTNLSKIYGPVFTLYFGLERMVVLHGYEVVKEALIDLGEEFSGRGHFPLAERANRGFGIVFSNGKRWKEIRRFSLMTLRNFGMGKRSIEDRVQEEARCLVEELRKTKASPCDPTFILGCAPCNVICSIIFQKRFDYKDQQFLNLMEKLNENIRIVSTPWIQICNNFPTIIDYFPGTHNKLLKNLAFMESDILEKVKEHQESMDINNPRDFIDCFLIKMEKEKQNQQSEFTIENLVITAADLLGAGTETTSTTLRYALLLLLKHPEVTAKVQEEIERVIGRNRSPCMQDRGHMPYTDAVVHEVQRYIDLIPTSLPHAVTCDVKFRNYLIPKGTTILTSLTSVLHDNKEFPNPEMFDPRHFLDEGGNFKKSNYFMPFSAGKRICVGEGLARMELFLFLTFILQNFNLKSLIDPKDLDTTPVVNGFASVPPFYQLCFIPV
ASSAY_INFO: Inhibition of human liver microsomal CYP2C19 using S-mephenytoin as substrate at 10 uM preincubated for 5 mins followed by NADPH addition measured after 20 mins by LC-MS/MS analysis
Assay type: ADME
TEST_PARAMETERS: liver microsomes, probe S-mephenytoin
ENDPOINT_NAME: inhibition at 20 min, 10 µM

* Cl.Fc1cccc(CCCNCCc2ccnc(-n3ccnc3)n2)c1 | > 70%
